Assay: yeast display, Sf9 membrane polyspecificity reagent, FACS + sequencing; frameworks hold sequencing errors
property: polyreactivity (PSR sort gate)

input-sequence	test-value
QVQLVESGGGLVQAGGSLRLSCAASGSIYTWYAMVWYRQAPGKERELVAAITRGGSTYADSVKGRFTISRDNAKNTVFLQMNSLKPEDTAVYYCATDLQPRSFLYWYNYWGQGTQVTVSS	low polyreactivity
QVQLVESGGGLVQAGGSLRLSCAASGRTDAYYAMGWYRQAPGKERELVAAITRGGSTYYADSVKGRFTISRDNAKNTVYLQMNSLKPEDTAVYYCAAATSPYQDDYWGQGTQVTVSS	low polyreactivity
QVHLVESGGGLVQAGGSLRLSCAASGRIFAYNAMGWYRQAPGKERELVAAITSRGTSTYYADSVKGRFTISRDNAKNTVYLQMNSLKQEDTAVYYCNADYNRNSVQVSLYDYWGQGTQVTVSS	low polyreactivity
QVQLVESGGGLVQAGGSLRLSCAASGFIFLLYDMGWYRQAPGKERELVAAITSDGTTNYADSVKGRFTISRDNAKNTVYLQMNSLKPEDTAVYYCAADGFTRWGRYDYWGQGTQVTVSS	high polyreactivity
QVQLVESGGGLVQAGGSLRLSCAASGGIFWAYAMGWYRQAPGKERELVAAITTRGTSTYYADSVKGRFTISCDNAKNTVYLQMNSLKPEDTAVYYCAAALYGYYSTLTTYWGQGTQVTVSS	high polyreactivity

====

Assay: yeast display, Sf9 membrane polyspecificity reagent, FACS + sequencing; frameworks hold sequencing errors

input-sequence	polyreactivity (PSR sort gate)
QVQLVESGGGLVQAGGSLRLSCAASGRIFVTYAMGWYRQAPGKERELVAAITSRGGRTYDADSVKGRFTISRDNAKNTVYLQMNSLKPEDTAVYYCAAYPGPGARYYYWGQGTQVTVSS	high polyreactivity
QVQLVESGGGLVQAGGSLRLSCAASGSIFRKNAMGWSRPAPGKERELVAVSTSSGASTYYADSVKGRFTISRDNAKNTVYVQMNSLKPEETAVYYCNAPSFYTKKMYSWGQGTQVTVSS	high polyreactivity
QVQLVESGGGLVQAGGSLRLSCAASGRTLIYYAMGWYRQAPGKERELVAAISSSGTSTYYADSVKGRFTISRDNAKNTVYLQMNSLKPEDTAVYYCAADGRTLGRRYYYWGQGTQVTVSS	high polyreactivity

====

Assay: yeast display, Sf9 membrane polyspecificity reagent, FACS + sequencing; frameworks hold sequencing errors

input-sequence	polyreactivity (PSR sort gate)
QVQLVESGGGLVQAGGSLRLSCAASGRIFGAYAMGWYIQAPGKERELVAAIDIRGGNTYYADSVKGRFTISRDNAKNTVYFQMNSQKPVDTAVYYCAADTWYDAYNYWGQGTQVTVSS	low polyreactivity
QVQLVESGVGLVQAGGSLRLSCAASGSILDYYVMGWYRQAPGKDRELVAAIRGGGSTYYADSVKGRFTFSRDNEKNTVYLQMNSLKPEDTAVYYCAKDSQTARDFDYSGQGTQVTVSS	low polyreactivity
QVQLVESGGGLVQAGGSLRLSCAASGSTYYYAMGWYIQEPGKEREFVAAISASGGSTYYADSVKGRFTISRDNAKNTVYLQMNSLKPDDTAGYYCTPLGYGYWGQGTQVTVSS	high polyreactivity
QVQLEESGGGLVQAGGSLRLSCAASGFTLPANGMGWYRQAPGKERELVAAISFIAGSTYYADSVKGRFTISRDNAKNTVYLQMNSLKPEDTAVYYCSTQFPPSTIYDYWGQGTQVTVSS	low polyreactivity
QVQLVESGGGLVQAGGSLRLSCAASGSIFGYYAMGWYRQAPGKERELVAAISWSGGSTYYADSVKGRFTISRDTAKNTVYLQMNSLKPEDTAVYYCAATSRGNDSQKYYYWGQGTQVTVSS	low polyreactivity
QDQLVESGGGLLQAGGSLRLSCAASGSTIGYYAMGWYRQAPGKERELVAAINSGDSTSYADSVKGRFTISRDNAKNTVYLQMNSLKPEDTAVYYCAVRPRRHQYGYWGQGTQVTVSS	low polyreactivity
QFQLVESGGGLVQAGGSLRLSCAASGRTYRYTMGWSRHAPGKERELVAAISRSGGSTYYADSVKGRFTISRDNAKTTVYLQMNSLIPEDTAVYYCAKVIYRYNETYDYWGQGTQVTVSS	high polyreactivity
QVQLVESGGGLVQEGGSLRLSCAASGLTFLNNAMGWYRPAPGKERELVAAISDGGSTNYADSVKGRFTISRDNAKNTVYLQMNSMKRDDTAVYYCAAVYTSASYGSWGQGTQVTVSS	low polyreactivity
QVLLVESGGGLVQAGGSLRLICAASGSIFGVYAMGWFRQAAGKDRELVAAISLSGTSTYYADSVKGRFTISRDNAKNTVYLQMNSLKAEDTAVYYCAAPWRLFSLYDYWGQGTQVTVSS	low polyreactivity
QVQLVESGGGLVQAGGSLRLSCAASGRTFRTYVMGWYRQAPGKERELVAAITGSGGSTYYADSVKGRFTISRDNAKNTVYLQMNSLKPEDTAVYYCAADYRWDYYWYDYAEYDYWGQGTQVTVSS	low polyreactivity
QVQLVESGGGLVQAGGSLRLSCAASGSTFGVNAMGWYRPAPGKERELVAAITYSGGSTYYADSVKGRFTISRDNAKNTVYLQMNSLKPEDTAVYYCATTWYFVASWYVAIYDYWGQGTQVTVSS	low polyreactivity
QVQLVESAGGLVQAGGSLRLSCDASGSTFVINAMGWYRPAPGKERELVAAISKSGGRTYYADSVKGRFTISRDNAKNTVYLQMNSLKPEDTAVYYCAAVSQRTRYGYWGQGTQVTVSS	high polyreactivity
QVQLVESGGGLVQAGGSLRYSCAASGLIFQHNALGWYRPAPGKERELVAAISGSGGSTYYADSVKGRFTISRDNAKNTVYLQMNSLKPEDTAVYYCATDDRYYRRYYWGQGTQVTVAS	high polyreactivity
QVQLVESGGGLVQAGGSLRLSCAASGGIFIANAMGWYRQAPGKERELVAAISSSGGSTYYADSVKGRFTISRDNAKNTVYLQMNSLKPEDTAVYYCNKLLTRSYRTYGRYGYWGQGTQVTVSS	high polyreactivity
QVQLVESGVGLLQAGGSLSLSCSASGSTLYYAMGWYRQAPGKERELVASITFSTGSTYYADSVKGRFTISRDNAKNTVYLQMNSLKPEDTAVYYCATGVDTYYLTVEHDSWGQGTQVTVSS	low polyreactivity
QVQLVESGGGLVQAGGSLRLSCAASGRIFGYYVMGWYRQAPGKERELVATISSGGSTYYADSVKGRFTISRDNAKNTVYLQMNSLKPEDTAVYYCNTDRYHRVDFEYWGQGTQVTVSS	high polyreactivity
QVKLVESGGGLVQAGGSLRLSCAASGRTFAWYTMGRYRQAPGKERALVAAISGSGGSTYYADSVKGRFTISRDNAKNTVYLQLNSLKPEDTDVYYCARRVDSYYCHTRYYYWGQGTQVTVSS	high polyreactivity
QVQLVESGGGLVQAGGSLRLSCASSGRTFYDNTMGWYRQAPGKERELVAGISYSGGSTYYADSVKGRFTISRDNAKNTVYLQMNSLKPEDTAVYYCNAELYFPYFDGKTRHGGYWGQGTQVTVSS	low polyreactivity
QVQLVDSRGGLVQAGGSLRLSCAASGSTYLRNVMGSYRQAPGKERELVAAISSRGGSTHYADSVKGRFTISRDNAKNTVYLQMNSMKPEDTAVYYSNAERTAAQYVRAAYDFWGEGTQVTVSS	low polyreactivity
QVQLEESGGGLVQAGGSLRLSCAASGFTFDANAMGWYRQAPGKERELVAAISSGGGSTYYADSVKGRFTISRDNPKNTVYLQMNSLKPEDTAVYYCAKVYLVYKSYPYDYWGLGTQVTVSS	high polyreactivity
QVQLVESGGGLVQAGGSLRLSCAASGRTIHYYAMGRSRQAPGKERELVAAITRGGNTYYADSVKGRFTISRDNAKNTVYLQMNSLKPEDTAVYYCAKDNHFEAYRYDYWGQGTQVTVSS	high polyreactivity
